- TARGET OR TEST SYSTEM: T1, Recombinant human TSLP-his (human, UniProt Q969D9 29-159)
- T1 construct: Prepared in-house; Amine-coupled to CM5 chip in SPR, loaded on APS sensors in Octet, biotin-labeled in the capture ELISA, unlabeled in the cell functional assays; also called human TSLP-his protein
- EXPERIMENTAL DETAILS: SPR, Biacore T200; protocol of Example 2
Measured koff values are reported for all entries that follow.

# BINDER, koff
records = [
    ("hu1C5F12E9-V17 (antibody, human IgG4 S228P, kappa, V domains shown) VH: QVQLVQSGAEVKKPGASVKVSCKASGYTFTTYWMHWVRQAPGQGLEWMGVIDPSDSDTTYNQKFKGKATMTRDTSTSTVYMELSSLRSEDTAVYYCTRSLDGYYDYWGQGTLVTVSS VL: DIQMTQSPSSLSASVGDRVTITCRPTENIYSYLAWYQQKPGKSPKLLIYFARTLAEGVPSRFSGSGSGTDFTLTISSLQPEDFATYYCQHHYGTPWTFGGGTKVEIKR", "< 1e-05 s⁻¹"),
    ("hu1C5F12E9-V11 (antibody, human IgG4 S228P, kappa, V domains shown) VH: QVQLVQSGAEVKKPGASVKVSCKASGYTFTTYWMHWVRQAPGQGLEWMGVIDPSDSDTTYNQKFKGKATMTRDTSTSTVYMELSSLRSEDTAVYYCTRSLDGYYDYWGQGTLVTVSS VL: DIQMTQSPSSLSASVGDRVTITCRPTENIYSYLAWYQQKPGKAPKLLIYFARTLAEGVPSRFSGSGSGTDFTLTISSLQPEDFATYYCQHHYGTPWTFGGGTKVEIKR", "< 1e-05 s⁻¹"),
    ("Chimeric 1C5F12E9 (antibody, human IgG1, kappa, V domains shown, Human IgG1/kappa chimera expressed in 293F cells; also called chimeric 1C5F12E9 antibody) VH: QVQLQQPGTELVKPGASVKMSCKASGYTFTTYWMHWVKQRPGQGLEWIGVIDPSDSDTTYNQKFKGKATLTVDTSSSTAYMQLSSLTSEDSAVYYCTRSLDGYYDYWGQGTTLTVSS VL: DIQMTQSPASLSASVGETVTITCRPTENIYSYLAWYQQKQGKSPHLLVYFARTLAEGVPSRFSGSGSGTQFSLKINSLQPEDFGIYYCQHHYGTPWTFGGGTKLEIKR", "6.36e-05 s⁻¹"),
]
